Where do these numbers come from? They come from the Human Domainome abundance scans (Beltran et al. 2025).

Record form. Attribute: abundance fitness. Fill in for each entry.
B1: Activity-dependent neuroprotector homeobox protein, residues 770 to 810; numbered along this chain, Q9H2P0 (parent)
chain: FLTKYFNKQPYPTRREIEKLAASLWLWKSDIASHFSNKRKK

Variants of: B1
method_description: abundance fitness (aPCA) (normalised: wild type 0, dead -1); higher = more abundant; growth selection in yeast, the domain comes from the species named
condition_notes: Homo sapiens
One number for each entry.

[[record]]
var = "K41A"
experimental_readout = "abundance fitness"
measured_number = -0.319

[[record]]
var = "N37I"
experimental_readout = "abundance fitness"
measured_number = 0.028

[[record]]
var = "E16D"
experimental_readout = "abundance fitness"
measured_number = 0.016

[[record]]
var = "K8T"
experimental_readout = "abundance fitness"
measured_number = -0.951

[[record]]
var = "E18V"
experimental_readout = "abundance fitness"
measured_number = -0.509


The following variants each have a reported value; give each one's abundance fitness.
1. S36T
2. S33P

Reply:
0.059
-0.01
